src = PubChem BioAssay (NCI)

Assay: NCI Yeast Anticancer Drug Screen. Data for the rad50 strain (AID 155)
Settings: S. cerevisiae rad50 strain growth inhibition; at 50.0 µM; stronger effect = higher value
Experimental: Growth inhibition of yeast strains with defined genetic alterations is measured as a screen for potential anti-cancer activity. Selected strains with alterations in DNA damage repair or cell cycle control were exposed to compounds and growth inhibition was measured relative to vehicle treated controls. The strain used in this assay is rad50
This is part of a sample that, as a whole, favours compounds with a hit. Of some 79,000 tested, about 15% had one in any assay.
Label Condition met when growth inhibition >= 90%; otherwise Condition not met.

The following molecules have reported results that may help.
| molecule | group |
| --- | --- |
| COC1=C2C[C@@H](C)C[C@@H](OC)[C@@H](O)[C@H](C)/C=C(\C)[C@@H](OC(N)=O)[C@H](OC)/C=C\C=C(/C)C(=O)NC(=CC1=O)C2=O | Condition not met |
| Cn1ncc2c(Nc3cccc(Cl)c3)nc(Nc3cccc(Cl)c3)nc21 | Condition met |
| Cn1c(=O)c2c(nc(CCCCCCCc3nc4c(c(=O)n(C)c(=O)n4C)n3C)n2C)n(C)c1=O | Condition not met |

Input: Hi team, for CCN(CC)C1Oc2cc3c(cc2C(c2ccc(OC)cc2)C1C)OCO3 (stereo not given) , is the recorded growth inhibition at or above 90%?
Output: Condition not met

Input: Here is the next molecule: Clc1c2ccccc2cc2cccnc12
Output: Condition not met

Input: Here is the next molecule: O=P(O)(CN1CCN(CP(=O)(O)c2ccccc2)CCN(CP(=O)(O)c2ccccc2)CC1)c1ccccc1
Output: Condition not met

Input: Here is the next molecule: Cc1c2ccccc2c(C)n2c1nc1cc(Cl)c(Cl)cc12
Output: Condition not met

Input: Here is the next molecule: N#C/C(=C\c1ccc(Cl)cc1Cl)C(N)=S
Output: Condition met

Input: Here is the next molecule: CCC(CC)C1(C(=O)OCCN(CC)CC)CCCCC1
Output: Condition not met
